- Assayed Target: T1, recombinant human sc-uPA (human, UniProt P00749 21-431)
- T1 construct: 411 amino acid single-chain zymogen expressed in HEK293; the 20-residue signal peptide is not present in the mature protein; also called human single-chain uPA; pro-uPA
- Protocol Summary: SPR, mAb immobilised
pKd: −log10 of the molar value.
Assay Metric: pKd

Binder | Value
rec0266-0000-0010-VH_D98K (antibody, mouse IgG1, V domains shown) VH: DVKLVESGGGLVKPGGSLKLSCVASGFTFSSYTMSWVRQTPEKRLEWVATISGGGSHIYYADSVKGRFTISRDNAKNTLYLQMSSLKSEDTAIYYCTRDGRKGSWFAYWGQGTLVTVSA VL: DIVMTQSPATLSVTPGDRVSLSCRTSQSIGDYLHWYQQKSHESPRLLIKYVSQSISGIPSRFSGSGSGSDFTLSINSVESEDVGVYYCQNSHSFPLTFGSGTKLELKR | 8.70
rec0266-0000-0010-VH_D98P (antibody, mouse IgG1, V domains shown) VH: DVKLVESGGGLVKPGGSLKLSCVASGFTFSSYTMSWVRQTPEKRLEWVATISGGGSHIYYADSVKGRFTISRDNAKNTLYLQMSSLKSEDTAIYYCTRDGRPGSWFAYWGQGTLVTVSA VL: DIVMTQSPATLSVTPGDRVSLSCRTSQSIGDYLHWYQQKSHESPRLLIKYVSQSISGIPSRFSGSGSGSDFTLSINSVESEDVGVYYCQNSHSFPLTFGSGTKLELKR | 9.01
rec0266-0000-0010-VH_G96T (antibody, mouse IgG1, V domains shown) VH: DVKLVESGGGLVKPGGSLKLSCVASGFTFSSYTMSWVRQTPEKRLEWVATISGGGSHIYYADSVKGRFTISRDNAKNTLYLQMSSLKSEDTAIYYCTRDTRDGSWFAYWGQGTLVTVSA VL: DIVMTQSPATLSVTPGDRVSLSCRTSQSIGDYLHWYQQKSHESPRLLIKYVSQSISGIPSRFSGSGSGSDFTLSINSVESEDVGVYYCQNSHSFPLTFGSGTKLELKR | 8.52
rec0266-0000-0010-VH_D95K (antibody, mouse IgG1, V domains shown) VH: DVKLVESGGGLVKPGGSLKLSCVASGFTFSSYTMSWVRQTPEKRLEWVATISGGGSHIYYADSVKGRFTISRDNAKNTLYLQMSSLKSEDTAIYYCTRKGRDGSWFAYWGQGTLVTVSA VL: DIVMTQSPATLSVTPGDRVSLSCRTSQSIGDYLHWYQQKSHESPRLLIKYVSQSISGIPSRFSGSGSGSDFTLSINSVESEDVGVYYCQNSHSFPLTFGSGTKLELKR | 7.92
rec0266-0000-0010-VH_G99A (antibody, mouse IgG1, V domains shown) VH: DVKLVESGGGLVKPGGSLKLSCVASGFTFSSYTMSWVRQTPEKRLEWVATISGGGSHIYYADSVKGRFTISRDNAKNTLYLQMSSLKSEDTAIYYCTRDGRDASWFAYWGQGTLVTVSA VL: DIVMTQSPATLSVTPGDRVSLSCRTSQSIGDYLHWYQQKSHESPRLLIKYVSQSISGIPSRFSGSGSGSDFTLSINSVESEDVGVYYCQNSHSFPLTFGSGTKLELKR | 8.62
rec0266-0000-0010-VH_D98L (antibody, mouse IgG1, V domains shown) VH: DVKLVESGGGLVKPGGSLKLSCVASGFTFSSYTMSWVRQTPEKRLEWVATISGGGSHIYYADSVKGRFTISRDNAKNTLYLQMSSLKSEDTAIYYCTRDGRLGSWFAYWGQGTLVTVSA VL: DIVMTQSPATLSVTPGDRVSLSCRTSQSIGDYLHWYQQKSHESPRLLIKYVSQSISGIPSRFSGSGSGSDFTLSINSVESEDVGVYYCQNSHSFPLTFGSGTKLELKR | 8.70
rec0266-0000-0010-VH_G99P (antibody, mouse IgG1, V domains shown) VH: DVKLVESGGGLVKPGGSLKLSCVASGFTFSSYTMSWVRQTPEKRLEWVATISGGGSHIYYADSVKGRFTISRDNAKNTLYLQMSSLKSEDTAIYYCTRDGRDPSWFAYWGQGTLVTVSA VL: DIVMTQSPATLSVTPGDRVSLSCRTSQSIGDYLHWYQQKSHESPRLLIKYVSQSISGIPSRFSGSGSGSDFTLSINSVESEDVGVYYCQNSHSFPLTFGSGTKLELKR | 8.60
rec0266-0000-0010-VH_G99I (antibody, mouse IgG1, V domains shown) VH: DVKLVESGGGLVKPGGSLKLSCVASGFTFSSYTMSWVRQTPEKRLEWVATISGGGSHIYYADSVKGRFTISRDNAKNTLYLQMSSLKSEDTAIYYCTRDGRDISWFAYWGQGTLVTVSA VL: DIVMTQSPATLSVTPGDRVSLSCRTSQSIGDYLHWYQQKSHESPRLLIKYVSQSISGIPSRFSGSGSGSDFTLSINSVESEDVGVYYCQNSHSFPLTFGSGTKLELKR | 8.34
rec0266-0000-0010-VH_D98V (antibody, mouse IgG1, V domains shown) VH: DVKLVESGGGLVKPGGSLKLSCVASGFTFSSYTMSWVRQTPEKRLEWVATISGGGSHIYYADSVKGRFTISRDNAKNTLYLQMSSLKSEDTAIYYCTRDGRVGSWFAYWGQGTLVTVSA VL: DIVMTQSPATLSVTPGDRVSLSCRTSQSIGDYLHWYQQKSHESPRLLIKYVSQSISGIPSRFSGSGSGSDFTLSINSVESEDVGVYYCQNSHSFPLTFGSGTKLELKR | 8.68
rec0266-0000-0010-VH_G99R (antibody, mouse IgG1, V domains shown) VH: DVKLVESGGGLVKPGGSLKLSCVASGFTFSSYTMSWVRQTPEKRLEWVATISGGGSHIYYADSVKGRFTISRDNAKNTLYLQMSSLKSEDTAIYYCTRDGRDRSWFAYWGQGTLVTVSA VL: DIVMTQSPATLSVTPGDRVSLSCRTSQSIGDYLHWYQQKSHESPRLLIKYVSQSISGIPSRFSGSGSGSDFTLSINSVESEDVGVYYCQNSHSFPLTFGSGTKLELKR | 7.82
